molecular target: human GST-p38 kinase alpha (Homo sapiens, UniProt Q16539); construct: The coding region of the human p38a cDNA was obtained by PCR-amplification from RNA isolated from the human monocyte cell line THP.1; made in house; host or cells: E. coli DH10B; experiment: p38 kinase in vitro assay, second format, phosphorylation of EGFRP with 33P-ATP; format: biochemical; details: Table 9, 10% DMSO; read-out: p38α Kinase Assay IC50
Sequence (Q16539 whole entry): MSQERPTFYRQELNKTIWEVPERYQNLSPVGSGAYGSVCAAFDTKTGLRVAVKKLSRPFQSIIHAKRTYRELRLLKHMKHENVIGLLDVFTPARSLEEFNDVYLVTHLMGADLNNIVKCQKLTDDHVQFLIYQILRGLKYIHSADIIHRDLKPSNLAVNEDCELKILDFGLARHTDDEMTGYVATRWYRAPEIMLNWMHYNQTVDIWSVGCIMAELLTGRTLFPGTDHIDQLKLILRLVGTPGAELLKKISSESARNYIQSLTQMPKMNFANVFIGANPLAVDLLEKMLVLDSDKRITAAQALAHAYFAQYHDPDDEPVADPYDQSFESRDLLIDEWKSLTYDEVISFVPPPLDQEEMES
pIC50: −log10 of the molar value. Structures can show the parent of a compound that is named as a salt.
Everything with pIC50 lower than 6 is no; everything else, including exactly 6, is yes.

>>> label("CCN(CC)CC(Nc1cc(-c2c[nH]nc2-c2ccc(F)cc2)ccn1)c1ccccc1 (centres unmarked)")
"yes"
>>> label("CN(C)C1CCN(c2[nH]nc(-c3ccc(F)cc3)c2-c2ccncc2)CC1 [Example A-360, trihydrochloride]")
"yes"
>>> label("CCN(CC)CCCNc1n[nH]c(-c2ccc(F)cc2)c1-c1ccncc1")
"yes"
>>> label("CC(C)C(CO)Nc1cc(-c2c[nH]nc2-c2ccc(F)cc2)ccn1 (centres unmarked)")
"yes"
>>> label("OC1CCN(c2[nH]nc(-c3ccc(F)cc3)c2-c2ccncc2)CC1")
"yes"
>>> label("Fc1ccc(-c2n[nH]cc2-c2ccnc(NCCN3CCCCC3)c2)cc1")
"no"
>>> label("O=C1CCN(c2n[nH]c(-c3ccc(F)cc3)c2-c2ccncc2)CC1")
"no"
>>> label("CCOC(=O)N1CCC(Nc2cc(-c3c[nH]nc3-c3ccc(F)cc3)ccn2)CC1")
"yes"
>>> label("O=C1CCC(Nc2cc(-c3c[nH]nc3-c3ccc(F)cc3)ccn2)CC1")
"yes"
>>> label("Fc1ccc(-c2n[nH]cc2-c2ccnc(NCC3CCNCC3)c2)cc1")
"yes"
>>> label("CCN1CCCCC1CCNc1cc(-c2c[nH]nc2-c2ccc(F)cc2)ccn1 (centres unmarked)")
"yes"
>>> label("CCN(CC)CCCC(C)Nc1[nH]nc(-c2ccc(F)cc2)c1-c1ccncc1 (centres unmarked)")
"yes"
>>> label("CCN(CC)C1CCN(c2n[nH]c(-c3ccc(F)cc3)c2-c2ccncc2)CC1 [Example A-388, trihydrochloride]")
"yes"
>>> label("CCOC(=O)N1CCN(c2[nH]nc(-c3ccccc3)c2-c2ccncc2)CC1")
"no"
>>> label("NC1CCN(c2[nH]nc(-c3ccc(F)cc3)c2-c2ccncc2)CC1 [Example A-365, trihydrochloride]")
"yes"

====

Counter-ions that a name gives are not always drawn.
experimental.readout: melting point

>>> endpoint_result("COc1ccc(CSC(SCc2ccc(OC)cc2)=C(C(=O)c2ccc(F)cc2)c2ccncc2)cc1")
"118.5 to 120.6 °C"
>>> endpoint_result("Fc1ccc(-c2[nH]nc(Nc3ccccc3)c2-c2ccncc2)cc1")
"218 to 219 °C"
>>> endpoint_result("CC(C#N)Sc1[nH]nc(-c2ccc(Cl)cc2)c1-c1ccncc1 (stereo not shown)")
"211.1 to 212.8 °C"
>>> endpoint_result("CC(=O)n1ccc(-c2c(-c3ccncc3)c(-c3ccc(F)cc3)nn2CCO)cc1=O")
"220 to 221 °C"
>>> endpoint_result("C#CCn1nc(N2CCNCC2)c(-c2ccncc2)c1-c1ccc(Cl)cc1 (as salt: hydrochloride) (hydrate or solvate) [Example A-318, trihydrochloride monohydrate]")
"231 to 233 °C (dec.)"
>>> endpoint_result("Clc1ccc(-c2n[nH]c(N3CCN(C4CC4)CC3)c2-c2ccncc2)cc1")
"264 to 265 °C"
>>> endpoint_result("CN1CCN(c2n[nH]c(-c3ccc(F)cc3)c2-c2ccncc2)CC1.O.O (hydrate or solvate)")
"238 to 240 °C"

Every entry's value here was drawn from patent US6525059B1.
